meta.source: patent US20020049223A1

Reported log10 of Antibacterial Activity (MIC's), D values follow for various compounds
Test system: Escherichia coli JUHL
Experiment: Assay B: in vitro antibacterial activity, broth microdilution MIC (NCCLS)
Format: cell-based
Conditions: Table 2, Assay B, cation-adjusted Mueller Hinton broth, 35° C., 16 to 20 hr; code D = Escherichia coli JUHL; unit assumed
Scale: log10; quantity: Antibacterial Activity (MIC's), D; unit before log: µg/mL

// known answers, use as guide
Cl.NC1CCCc2sc(-c3cc4c(cc3F)c(=O)c(C(=O)O)cn4C3CC3)cc21 (stereo not shown) [Example 307] | -1.52
COc1c(-c2cc3c(s2)C(N)C(C)(C)CC3)ccc2c(=O)c(C(=O)O)cn(C3CC3)c12.Cl (stereo not shown) [Example 245] | -0.60
Cl.NC1CCCc2sc(-c3ccc4c(=O)c(C(=O)O)cn(C5CC5)c4c3Cl)cc21 (stereo not shown) [Example 329] | -1.52
COc1c(-c2cc3c(s2)CC(N)C3)ccc2c(=O)c(C(=O)O)cn(C3CC3)c12.Cl (stereo not shown) [Example 249] | -1.22
COc1c(-c2cc3c(s2)CCCC3=NNC(C)=O)ccc2c(=O)c(C(=O)O)cn(C3CC3)c12 [Example 96] | 0.00
Cl.NC1CCCc2sc(-c3nc4c(cc3F)c(=O)c(C(=O)O)cn4C3CC3)cc21 (stereo not shown) [Example 156] | -1.52

Could you now consider this next compound?
Q. Given the compound COc1c(-c2cc3c(s2)CCCC3N2CC(N)C2)ccc2c(=O)c(C(=O)O)cn(C3CC3)c12.Cl.Cl (stereo not shown) [Example 212] , what is its reported log10 of Antibacterial Activity (MIC's), D?
A. -0.30
